Catalogue of apparent KD of MS2 coat protein readings, one per entry.
Tested on: MS2 coat protein
Assay Details: apparent KD of MS2 coat protein; designed switch direction (-1 OFF switch, 1 ON switch): 1; higher = weaker reporter binding
Experimental Setup: input ligand: microRNA oligo, concentration not stated
Value Type: apparent KD of MS2 coat protein (nM)

GGAGCUGUUAUAGGAUAUCCCGCUCAUUACGCGGGAGAAGGGUGACGCUCACAUGAGGAUCACCCAUGUGGCGUUCCAAAAUAA [Reesti] (Eterna round: R96, puzzle: Same State NG 1)    7.1
GGAUGAUAGACAGGAUAUUGAUUGUAAUUAUGUCAAGAAGGGUCUUUGAUUUAAACGACCAGUUACAUGAGGAUCACCCAUGUU [JR_SSNG1_Sub029] (Eterna round: R96, puzzle: Same State NG 1)    24.1
GGAUGAUUAAUAGGAUAUUAGUUGUAAAAUGUUUAAGAAGGAUUAAUGAUUUAAACGACCAGUUACAUGAGGAUCACCCAUGUU [JR_SSNG1_Sub093] (Eterna round: R96, puzzle: Same State NG 1)    20.6
GCUCGAUGAUAGGCCUACAUGAGGAUCACCCAUGUAACUGGGCAGGAUAUCUAAAUGCAGAAUGUAGAGAAGGGCCCGUCGAGC [SameState NG3 #53] (Eterna round: R96, puzzle: Same State NG 3)    86.8
GCGAGCGUACUUGCUACAUGAGGAUCACCCAUGUUUAUUGGACAGGAUAUGGUACCGUUUCGGUACCAGAAGGGUUCAUCAUGU [JL SSNG3 3.70] (Eterna round: R96, puzzle: Same State NG 3)    471
